Test system: hT40, dGA, dGAE and truncated tau fragments
test-protocol: Binding ELISA / epitope mapping of anti-tau scAbs with truncated tau proteins and 13mer peptides
Parameters: species or system human
study-conditions: ELISA, 'E' group scAbs
parameter-measured: cross-reactivity using hT40, dGA and dGAE antigens

1. E1E8: dGAE (391E) specific clone, Table 9; SEQ ID NO: 250 (protein, E1E8 amino acid sequence) scFv: QVQLQESGPSLVKPSQTLSLTCTVSGFSLTDWGVAWVRQAPGKALEWLGTMRSGGTTDDNPALKSRLSITRDTSKSQVSLSLSSVTTEDMAMYYCARGYLSGVHYAWGRGLLVTVSSEGKSSGASGESKVDDQAVLTQPSSVSGSLGQSVSITCSGSSSNVGDGRYVSWFQQVPGSAPKLLIYDTTSRASGVPDRFSGSRSGNTATLIITSLQAEDEADYYCASIDSGNNLLFGSGTRLTVLG    specific dGAE binding
2. E2E8: dGAE (391E) specific clone, Table 9; SEQ ID NO: 248 (protein, E2E8 amino acid sequence) scFv: QVQLQESGPSLVKPSQTLSLTCTVSGFSLTDRGVAWVRQAPGKALEWVGTMRSGGTIDYNPALKSRLSITRDTSKSQVFLSLSSVTTEDMAMYYCARGYLSGDRYAWGRGLLVTVSSEGKSSGASGESKVDDQAVLTQPSSVSKSLGQSVSIACSGSRSDIGYGNYVSWFQQIPGSAPKLLIYDTNTRASGVPDRFSGARSGNTATLTINSLQAEDEADYYCANIDSSRSHLFGSGTRLTVLG    specific dGAE binding
